This collection of values is drawn from ChEMBL document CHEMBL5029196.

measured.target: Mitogen-activated protein kinase kinase kinase kinase 1 (Homo sapiens, UniProt Q92918)
Sequence (Q92918 whole entry): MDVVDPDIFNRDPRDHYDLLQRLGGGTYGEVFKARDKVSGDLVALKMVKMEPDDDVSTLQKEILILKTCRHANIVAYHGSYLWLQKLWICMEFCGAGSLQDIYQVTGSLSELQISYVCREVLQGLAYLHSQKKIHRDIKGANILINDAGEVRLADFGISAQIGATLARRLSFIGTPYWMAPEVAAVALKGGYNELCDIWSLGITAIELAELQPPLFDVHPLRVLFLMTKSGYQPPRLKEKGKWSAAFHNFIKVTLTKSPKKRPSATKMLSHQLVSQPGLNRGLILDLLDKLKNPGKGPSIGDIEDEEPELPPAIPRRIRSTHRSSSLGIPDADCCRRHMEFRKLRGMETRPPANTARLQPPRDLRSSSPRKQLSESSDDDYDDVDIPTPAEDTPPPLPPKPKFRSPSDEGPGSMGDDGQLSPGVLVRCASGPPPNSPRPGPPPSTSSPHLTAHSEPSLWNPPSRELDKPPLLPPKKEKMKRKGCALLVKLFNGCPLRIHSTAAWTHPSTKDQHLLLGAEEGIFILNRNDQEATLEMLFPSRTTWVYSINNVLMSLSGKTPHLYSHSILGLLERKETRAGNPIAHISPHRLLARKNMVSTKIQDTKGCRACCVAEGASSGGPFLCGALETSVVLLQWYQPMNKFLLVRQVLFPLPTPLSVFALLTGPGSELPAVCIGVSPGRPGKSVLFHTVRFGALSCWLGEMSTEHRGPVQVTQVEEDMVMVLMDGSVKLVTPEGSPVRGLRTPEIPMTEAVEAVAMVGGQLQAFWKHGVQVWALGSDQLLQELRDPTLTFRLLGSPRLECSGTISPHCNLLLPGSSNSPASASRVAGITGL
method.summary: Inhibition of human full length recombinant HPK1 using 5FAM-AKRRRLSSLRACOOH as substrate preincubated for 20 mins and measured for 60 mins by microfluidic mobility shift assay
pKi: −log10 of the molar value.
measured.metric: pKi

Worked cases, pKi given:
COc1cc(CN)c2c(c1)C(=O)N(c1cccc(-c3nncn3[C@@H](C)CC(F)(F)F)n1)C2: 9.52
CC[C@@H](CC(F)(F)F)n1cnnc1-c1cccc(N2Cc3c(CNC)cc(OC)cc3C2=O)n1: 9.40

(P) CNCc1cc(OC)cc2c1CN(c1cccc(-c3nncn3[C@@H](C)C3CC3)n1)C2=O
(Q) CC[C@H](C)n1cnnc1-c1cccc(N2Cc3c(CNC)cc(N(C)C)cc3C2=O)n1
I'd appreciate it if you could identify which of P and Q has the greater pKi. Select an item and report its label.
P
(P: 9.70, Q: 9.40)
